Where do these numbers come from? They come from the supplement of paper PMC5762512.

# Tested on: A549
# METHOD: IC50 cell viability (Alamar Blue, 96 h)
METRIC NAME: IC50 cell viability (nM)

Nc1ccn([C@@H]2O[C@H](CO)[C@@H](O)C2(F)F)c(=O)n1: 9.64
C#Cc1cccc(Nc2ncnc3cc(OCCOC)c(OCCOC)cc23)c1: 2740

1: Cc1cc(/C=C/c2ccc3cc(N(C)C)ccc3[n+]2C)c(C)n1-c1ccccc1 [Pyrvinium pamoate]
2: C[C@H]1O[C@@H](O[C@H]2[C@@H](O)C[C@H](O[C@H]3[C@@H](O)C[C@H](O[C@H]4CC[C@@]5(C)[C@H](CC[C@@H]6[C@@H]5C[C@@H](O)[C@]5(C)[C@@H](C7=CC(=O)OC7)CC[C@]65O)C4)O[C@@H]3C)O[C@@H]2C)C[C@H](O)[C@@H]1O
Hi, I'm comparing two records. Which one has the lower IC50 cell viability, 1 or 2 ? The response must carry the label of the picked entry.
2

P: COc1cc(Nc2ncc3c(n2)-c2ccc(Cl)cc2C(c2c(F)cccc2OC)=NC3)ccc1C(=O)O
Q: COc1cccc2c1C(=O)c1c(O)c3c(c(O)c1C2=O)C[C@@](O)(C(C)=O)C[C@@H]3O[C@H]1C[C@H](N)[C@H](O)[C@H](C)O1
Which is greater in IC50 cell viability, the first item P or the second item Q ? // caller expects the label of the chosen entry
P
(P: 249 nM, Q: 13.1 nM)
